Experiment: gradient 5% acetonitrile 3 min, to 50% in 2 min, to 85% in 15 min, held 3 min, 100 µL/min
Conditions: column: Zorbax Extend-C18 2.1 x 50 mm; eluents: water / acetonitrile, 0.1% formic acid
Some compounds, each annotated with its measured RP-LC retention time.
The number alone won't do; follow it with the unit.

Study these solved cases before continuing.
LINE_NOTATION | QUANTITY_NAME | MEASUREMENT
Cc1cc(=O)n(CC(=O)Nc2ccc(Br)cc2)c(N2CCOCC2)n1 | RP-LC retention time | 712 s
Cc1ccccc1CNC(=O)c1ccc2c(c1)CC(=O)N2C | RP-LC retention time | 714 s
c1ccc(CCCN2CCN(CCOC(c3ccccc3)c3ccccc3)CC2)cc1 | RP-LC retention time | 874 s

Problem: Fill in: RP-LC retention time of O=S(=O)(c1cccc(-c2nnc(-c3ccc(F)cc3)o2)c1)N1CCOCC1 is ___
Result: 892 s

###

Assay: gradient 5% acetonitrile 3 min, to 50% in 2 min, to 85% in 15 min, held 3 min, 100 µL/min
Settings: column: Zorbax Extend-C18 2.1 x 50 mm; eluents: water / acetonitrile, 0.1% formic acid
QUANTITY_NAME: RP-LC retention time
Write your answer as a measured quantity: the number, then the unit.

Solved entries:
COMPOUND | MEASUREMENT
Cc1ccc(Cn2c(=O)c(N3CCN(C(=O)NCC4CCCO4)CC3)nc3ccccc32)cc1 (stereo unspecified) | 908 s
COc1ccccc1N1CCN(C(=O)c2ccc(OCc3nc(C4CC4)cs3)cc2)CC1 | 911 s
COc1cccc(Nc2nc3ccncc3n(C(C)C)c2=O)c1 | 680 s
Cc1cccc2nnc(N3CCC(C(=O)Nc4cccc(F)c4)CC3)n12 | 697 s
CCc1ccc(C2=C(C)C(N3CCCN(C(=O)C(C)(C)C)CC3)=NS2(=O)=O)cc1 | 901 s

Moving on to the next compound.
Problem: Recorded RP-LC retention time of COCCn1cc2c3c(cccc31)CN(C(=O)Nc1cc(Cl)ccc1C)CC2 , please.
Result: 679 s

###

The following compounds are shown together with reported RP-LC retention time values.
Assay: gradient 5% acetonitrile 3 min, to 50% in 2 min, to 85% in 15 min, held 3 min, 100 µL/min
Conditions: column: Zorbax Extend-C18 2.1 x 50 mm; eluents: water / acetonitrile, 0.1% formic acid
Report only the number, with the unit s understood.

As a guide, the following entries are already answered.
COMPOUND | QUANTITY_NAME | MEASUREMENT_UNIT | MEASUREMENT
CC(C)Cn1c(CCNC(=O)c2ccccc2F)nc2cccnc21 | RP-LC retention time | s | 698
O=C(Nc1ccc(NC(=O)N2CCCC(C(=O)NCC3CC3)C2)cc1)NC1CCCC1 (stereo not given) | RP-LC retention time | s | 692

Problem: Given the entry COc1cccc(C(=O)N2C[C@@H]3C[C@H](NC(=O)c4cccs4)[C@H]2C3)c1OC , report its measured RP-LC retention time.
Result: 679

Problem: Try the compound CCNc1cc(N2CCCC(CCC(=O)N3CCc4ccccc4C3)C2)ncn1 (stereo not given)
Result: 694

Problem: Lookup CNC(=O)c1csc(NC(=O)c2cc(Cl)ccc2Cl)n1
Result: 685

###

Assay: gradient 5% acetonitrile 3 min, to 50% in 2 min, to 85% in 15 min, held 3 min, 100 µL/min
Settings: column: Zorbax Extend-C18 2.1 x 50 mm; eluents: water / acetonitrile, 0.1% formic acid
QUANTITY_NAME: RP-LC retention time (s)
The reply should be a number in s, with the unit left off.

Below, 10 molecules whose answers are already recorded.
MOLECULE | RP-LC retention time (s)
Cn1ncc2c(N3CCCC3)nc(C(=O)NCc3ccc(C(F)(F)F)cc3)nc21 | 905
O=C(c1ccc(F)c(F)c1)N1CCN(c2cc(-c3ccc(Cl)cc3)[nH]n2)CC1 | 900
Cc1ccc(NC(=O)Cn2nc(N3CCSCC3)c3ccccc3c2=O)cc1F | 976
COc1ccc(CCNC(=O)CCc2nnc3c4cc(-c5ccc(C)c(C)c5)nn4ccn23)cc1OC | 802
CCc1nc2cc(-c3noc(Cc4ccccc4F)n3)ccc2o1 | 1050
COCCNC(=O)c1c(C)sc2ccn(Cc3ccc(F)cc3)c(=O)c12 | 749
Cc1ccc(CNS(=O)(=O)c2cc3c4c(c2)CCC(=O)N4CCC3)cc1 | 868
CCn1cc(S(=O)(=O)NCc2ccccc2C)c2cccnc21 | 853
CCC1c2nccn2CCCN1C(=O)c1ccc2c(c1)OCO2 (stereo not drawn) | 593
Cc1ccc(Nc2c(-c3ccc(C)cc3)nc3ccc(Br)cn23)cc1 | 849

Problem: Which RP-LC retention time is listed for COc1ccc(Cc2nc3nccc(-c4cc5ccccc5o4)n3n2)cc1 ?
Result: 1090

Problem: Note, next up: CC(C)(C)NC(=O)N1CCN(Cc2nc3cccnc3n2-c2cccc(F)c2)CC1
Result: 648

Problem: Param item: COc1cc(NC(=O)c2ccc(-n3cnc(NC(=O)C4CC4)c3)cc2)cc(OC)c1
Result: 744

###

Assay: gradient 5% acetonitrile 3 min, to 50% in 2 min, to 85% in 15 min, held 3 min, 100 µL/min
Conditions: column: Zorbax Extend-C18 2.1 x 50 mm; eluents: water / acetonitrile, 0.1% formic acid
Reported values of RP-LC retention time for individual entries
Output spec: scalar in s, unitless text.

Problem: Entry CCOC(=O)c1cc(NC(=O)Nc2cccc(OC)c2)c(C)nc1C has what RP-LC retention time?
Result: 701

Problem: How about CCc1noc(CN2N=C(C(=O)N3CCC(C)CC3)S(=O)(=O)c3ccccc32)n1 ?
Result: 886

Problem: Would you mind doing CCOc1ccc(CNC(=O)Cc2cn(C)c3ncccc23)cc1 as well?
Result: 698

Problem: Try this compound too: Cc1ccc(-c2cn3cc(C(=O)NC(C)(C)C)ccc3n2)cc1
Result: 692

Problem: And the next one, CCC(C)NC(=O)c1ccc(CN2CCN(Cc3ccccc3)C(=O)C2=O)cc1 (stereo not given) ?
Result: 721

###

Assay: gradient 5% acetonitrile 3 min, to 50% in 2 min, to 85% in 15 min, held 3 min, 100 µL/min
Settings: column: Zorbax Extend-C18 2.1 x 50 mm; eluents: water / acetonitrile, 0.1% formic acid
Mark satisfied for reported RP-LC retention time of 800 s or greater; mark not satisfied for anything smaller.

COMPOUND | ASSIGNED_CATEGORY
CCC(=O)Nc1ccc(-n2cnc(C(=O)NCc3ccccc3)c2)nc1 | not satisfied
Cc1nc2c(ccc3nc(NC(=O)c4ccccc4Br)sc32)s1 | satisfied
CCOc1ccc(N(C)C(=O)C2CCCN2S(=O)(=O)c2cc(C(=O)OC)n(C)c2)cc1 (stereo not drawn) | satisfied
O=C1CCc2cc(OCCCCc3nnnn3C3CCCCC3)ccc2N1 | satisfied
COc1cc(NC(=O)N2CCC(n3c(CC(C)C)nc4cccnc43)CC2)cc(OC)c1OC | not satisfied

# next compound below
Problem: hey, is RP-LC retention time for this one >= 800 s? CCN1CCN(c2cc(C)c3cc(NC(=S)N4CCC(Cc5ccccc5)CC4)ccc3n2)CC1
Result: not satisfied

###

Entries and their RP-LC retention time values follow.
Test: gradient 5% acetonitrile 3 min, to 50% in 2 min, to 85% in 15 min, held 3 min, 100 µL/min
Conditions: column: Zorbax Extend-C18 2.1 x 50 mm; eluents: water / acetonitrile, 0.1% formic acid
All answers are understood in s, so give the number only.

// known answers, use as guide
MOLECULE | MEASUREMENT
COC(=O)c1sc2ccccc2c1S(=O)(=O)N1CCN(c2ccccn2)CC1 | 752
Cc1cccc(-c2ncccc2CNS(=O)(=O)c2ccccc2)c1 | 677
O=C(Nc1ccc2c(c1)OCCO2)N1CCCC(Cn2c(C3CC3)nc3cccnc32)C1 (stereo unspecified) | 645
O=C(Cc1nc(-c2ccccc2)n[nH]1)NC1CCCCC1 | 714
CCn1cc(S(=O)(=O)Nc2cc(C)ccc2C)c2cccnc21 | 892

Below: the item to evaluate.
Problem: Form field: reported RP-LC retention time of Cn1c(=O)n(CCN2CCOCC2)c(=O)c2c1nc1n2CCCN1c1ccccc1
Result: 615

###

Test: gradient 5% acetonitrile 3 min, to 50% in 2 min, to 85% in 15 min, held 3 min, 100 µL/min
Details: column: Zorbax Extend-C18 2.1 x 50 mm; eluents: water / acetonitrile, 0.1% formic acid
Output MET for RP-LC retention time not less than 900 s; output NOT MET otherwise.

Example results:
COMPOUND | ASSIGNED_CATEGORY
Cc1ccc(C(=O)N2CCc3c(c(C(=O)N4CCCC(C(=O)NC5CC5)C4)nn3C)C2)cc1 (centres undefined) | NOT MET
Cc1ccc(NC(=O)N2CCC(N3CCN(Cc4ccccc4)C3=O)CC2)cc1 | NOT MET
COc1cccc(Cc2nc(-c3cn(-c4cccc(F)c4)nn3)no2)c1 | MET
CN(CCCNC(=O)C1CCN(c2nc3ccccc3n(C)c2=O)CC1)C1CCCCC1 | NOT MET
CNC(=O)c1cc(N2CCOCC2)nc2ccc(F)cc12 | NOT MET

Problem: Determine whether measured RP-LC retention time meets or exceeds 900 s for CCc1ccccc1NC(=O)Cn1c(N)nc(C(C)C)cc1=O
Result: NOT MET

Problem: Do the same for Cc1nc(-c2ccccc2)cc2nn(CC(=O)Nc3ccc(F)c(Cl)c3)c(=O)n12 please
Result: MET

Problem: Would you mind doing O=C(CC1CCN(S(=O)(=O)c2ccc(Cl)s2)CC1)N1CCN(c2ccccn2)CC1 as well?
Result: NOT MET
